Data provenance: patent US20210070748A1

# ASSAYED SYSTEM: SRC (Homo sapiens, UniProt P12931)
# Sequence (P12931 whole entry): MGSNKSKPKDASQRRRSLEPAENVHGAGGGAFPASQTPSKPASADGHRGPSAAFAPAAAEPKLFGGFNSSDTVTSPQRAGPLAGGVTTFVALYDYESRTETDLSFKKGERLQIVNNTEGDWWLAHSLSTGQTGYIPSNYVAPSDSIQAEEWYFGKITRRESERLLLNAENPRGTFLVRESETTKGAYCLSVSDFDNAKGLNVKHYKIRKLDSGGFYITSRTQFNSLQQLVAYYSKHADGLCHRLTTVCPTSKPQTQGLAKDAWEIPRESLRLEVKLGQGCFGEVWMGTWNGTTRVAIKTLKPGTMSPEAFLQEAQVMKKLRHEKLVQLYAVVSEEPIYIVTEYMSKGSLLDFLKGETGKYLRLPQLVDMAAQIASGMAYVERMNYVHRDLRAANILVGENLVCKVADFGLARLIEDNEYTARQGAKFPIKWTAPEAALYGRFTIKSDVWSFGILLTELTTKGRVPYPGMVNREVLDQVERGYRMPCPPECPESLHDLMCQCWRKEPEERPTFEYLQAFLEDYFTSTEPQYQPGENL
# TEST DETAILS: Inhibition of a panel of kinases, in vitro HotSpot kinase assay: SRC
# Assay type: biochemical
# EXPERIMENTAL CONDITIONS: Table 13, A compounds; 1 μM ATP
Items are presented alongside their recorded IC50.

Examples with answers:
{"SAMPLE SMILES": "CC(C)N1CCN(c2ccc(Nc3nc(N4CCC[C@@H](NC(=O)c5ccc(C6CC6)cc5F)[C@H]4C)cnc3C(N)=O)cc2)CC1", "ATTRIBUTE MEASURED": "IC50", "VALUE": "10 to 100 nM"}
{"SAMPLE SMILES": "CN1CCC(n2cc(Nc3nc(N4CCC[C@@H](n5ccc6cc(C7CC7)ccc6c5=O)C4)cnc3C(N)=O)cn2)CC1", "ATTRIBUTE MEASURED": "IC50", "VALUE": "100 to 1000 nM"}
{"SAMPLE SMILES": "C[C@@H]1[C@H](NC(=O)N(C)C)CCCN1c1cnc(C(N)=O)c(Nc2ccc(N3CCN(C)CC3)cc2)n1", "ATTRIBUTE MEASURED": "IC50", "VALUE": "10 to 100 nM"}
{"SAMPLE SMILES": "CN1CCN(c2ccc(Nc3nc(N4CCC[C@@H](n5ccc6cc(C7CC7)cc(F)c6c5=O)C4)cnc3C(N)=O)cc2)CC1", "ATTRIBUTE MEASURED": "IC50", "VALUE": "10 to 100 nM"}
{"SAMPLE SMILES": "CN1CCN(C(=O)c2ccc(Nc3nc(N4CCC[C@@H](n5ccc6cc(C7CC7)ccc6c5=O)C4)cnc3C(N)=O)cc2)CC1", "ATTRIBUTE MEASURED": "IC50", "VALUE": "100 to 1000 nM"}

Query molecule follows.
stdin: Look up and report IC50, with SRC (Homo sapiens, UniProt P12931) as system, for C[C@@H]1[C@H](NC(=O)c2ccc(C3CC3)cc2F)CCCN1c1cnc(C(N)=O)c(Nc2nc3c(s2)CN(C)CC3)n1
stdout: > 10000 nM

----------
Items are presented alongside their recorded pIC50.
# ASSAYED SYSTEM: ITK (Homo sapiens, UniProt Q08881)
# Sequence (Q08881 whole entry): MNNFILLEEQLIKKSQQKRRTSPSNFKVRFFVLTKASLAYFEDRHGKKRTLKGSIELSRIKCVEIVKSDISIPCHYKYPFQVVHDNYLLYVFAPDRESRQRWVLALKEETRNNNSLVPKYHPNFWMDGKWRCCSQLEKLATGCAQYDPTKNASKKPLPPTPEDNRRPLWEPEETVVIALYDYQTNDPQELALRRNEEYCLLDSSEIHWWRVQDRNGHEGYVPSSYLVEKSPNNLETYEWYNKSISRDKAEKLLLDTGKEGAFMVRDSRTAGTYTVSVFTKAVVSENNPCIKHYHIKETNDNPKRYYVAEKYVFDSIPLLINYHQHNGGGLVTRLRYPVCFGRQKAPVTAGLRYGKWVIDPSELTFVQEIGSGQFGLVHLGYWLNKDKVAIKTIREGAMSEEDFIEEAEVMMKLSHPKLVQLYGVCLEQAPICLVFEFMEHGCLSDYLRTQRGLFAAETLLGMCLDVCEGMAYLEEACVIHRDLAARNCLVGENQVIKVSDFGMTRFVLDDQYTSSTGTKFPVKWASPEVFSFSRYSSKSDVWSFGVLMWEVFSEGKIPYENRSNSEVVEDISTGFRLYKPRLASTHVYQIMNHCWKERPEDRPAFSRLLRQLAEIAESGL
# TEST DETAILS: Inhibition of a panel of kinases, in vitro HotSpot kinase assay: ITK
# Format: biochemical
# EXPERIMENTAL CONDITIONS: D-compounds panel data; 1 μM ATP
pIC50: −log10 of the molar value.

{"MOLECULE": "CCn1cc(Nc2nc(N3CCC[C@@H](NC(=O)c4ccc(C5CC5)cc4)[C@H]3C)cnc2C(N)=O)cn1 [Example D-273]", "pIC50": "6.00 to 7.00"}

stdin: Indicate its recorded pIC50; the molecule in question is C[C@@H]1[C@H](NC(=O)N(C)C)CCCN1c1cnc(C(N)=O)c(Nc2cn[nH]c2)n1 [Example D-53]
stdout: 6.00 to 7.00

----------
Items are presented alongside their recorded IC50.
# ASSAYED SYSTEM: ITK (Homo sapiens, UniProt Q08881)
# TEST DETAILS: Inhibition of a panel of kinases, in vitro HotSpot kinase assay: ITK
# Type: biochemical
# EXPERIMENTAL CONDITIONS: D-compounds panel data; 1 μM ATP

{"MOLECULE": "Cc1cc(Nc2nc(N3CCC[C@@H](NC(=O)N4Cc5ccccc5C4=O)C3)cnc2C(N)=O)sn1 [Example D-15]", "IC50": "10 to 100 nM"}
{"MOLECULE": "C[C@H]1CC[C@@H](NC(=O)c2ccc(C(C)(C)O)cc2)CN1c1nnc(C(N)=O)c(Nc2cnn(C)c2)n1 [Example D-157]", "IC50": "10 to 100 nM"}
{"MOLECULE": "C[C@@H]1[C@H](NC(=O)c2ccc(C3CC3)cc2)CCCN1c1cnc(C(N)=O)c(Nc2ccc3nccn3c2)n1 [Example D-83]", "IC50": "1000 to 10000 nM"}

stdin: Indicate its recorded IC50; the molecule in question is CC(C)n1ccc(C(=O)N[C@@H]2CCCN(c3cnc(C(N)=O)c(Nc4cnn(C)c4)n3)[C@@H]2C)cc1=O [Example D-35]
stdout: 1000 to 10000 nM

stdin: Indicate its recorded IC50; the molecule in question is C[C@@H]1[C@H](NC(=O)c2c[nH]c(C3CC3)n2)CCCN1c1cnc(C(N)=O)c(Nc2cnn(C)c2)n1 [Example D-264]
stdout: 100 to 1000 nM

----------
# ASSAYED SYSTEM: JAK3 (Homo sapiens)
# Sequence (P52333 1-1124): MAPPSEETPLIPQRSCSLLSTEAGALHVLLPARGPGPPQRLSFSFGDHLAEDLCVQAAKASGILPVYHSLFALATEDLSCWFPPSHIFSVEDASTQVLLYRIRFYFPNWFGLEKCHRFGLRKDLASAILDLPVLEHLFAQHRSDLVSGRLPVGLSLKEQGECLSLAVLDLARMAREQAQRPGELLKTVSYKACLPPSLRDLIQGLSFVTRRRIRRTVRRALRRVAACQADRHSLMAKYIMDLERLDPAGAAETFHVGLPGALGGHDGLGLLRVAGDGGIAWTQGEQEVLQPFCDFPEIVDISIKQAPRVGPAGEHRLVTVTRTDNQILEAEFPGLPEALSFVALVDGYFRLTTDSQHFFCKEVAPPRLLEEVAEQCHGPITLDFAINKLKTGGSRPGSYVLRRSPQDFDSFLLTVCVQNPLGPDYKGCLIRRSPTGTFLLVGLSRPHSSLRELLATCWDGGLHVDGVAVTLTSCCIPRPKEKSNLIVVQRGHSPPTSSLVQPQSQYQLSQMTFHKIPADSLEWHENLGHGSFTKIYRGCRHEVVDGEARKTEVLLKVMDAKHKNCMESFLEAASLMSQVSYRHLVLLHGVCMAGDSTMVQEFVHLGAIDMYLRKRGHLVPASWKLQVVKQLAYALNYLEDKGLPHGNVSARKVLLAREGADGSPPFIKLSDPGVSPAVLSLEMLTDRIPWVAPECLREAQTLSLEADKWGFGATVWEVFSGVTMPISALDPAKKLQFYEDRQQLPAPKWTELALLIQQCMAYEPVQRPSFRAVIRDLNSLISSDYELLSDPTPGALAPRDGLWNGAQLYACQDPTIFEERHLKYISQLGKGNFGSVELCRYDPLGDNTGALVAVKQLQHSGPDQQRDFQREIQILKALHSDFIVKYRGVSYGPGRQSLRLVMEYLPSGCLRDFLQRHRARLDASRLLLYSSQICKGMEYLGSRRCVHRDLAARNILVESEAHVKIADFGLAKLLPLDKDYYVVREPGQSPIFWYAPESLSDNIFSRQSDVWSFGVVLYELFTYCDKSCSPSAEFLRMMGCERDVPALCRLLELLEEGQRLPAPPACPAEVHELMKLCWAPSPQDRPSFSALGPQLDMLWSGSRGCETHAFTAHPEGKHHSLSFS
# TEST DETAILS: Inhibition of a panel of kinases, in vitro HotSpot kinase assay: JAK3
# Type: biochemical
# EXPERIMENTAL CONDITIONS: E compounds, Table 17; read-out: IC50 JAK3
Items are presented alongside their recorded IC50.

Examples with answers:
{"SAMPLE SMILES": "C=CC(=O)N[C@@H]1CCCN(c2cnc(C(N)=O)c(Nc3cc(C)ns3)n2)[C@@H]1C", "ATTRIBUTE MEASURED": "IC50", "VALUE": "< 0.01 µM"}
{"SAMPLE SMILES": "C[C@@H]1[C@H](NC(=O)c2ccc(C3CC3)cc2)CCCN1c1cnc(C(N)=O)c(Nc2cnc(C3CCOCC3)nc2)n1", "ATTRIBUTE MEASURED": "IC50", "VALUE": "> 10 µM"}
{"SAMPLE SMILES": "C[C@@H]1[C@H](NC(=O)c2noc(C(C)(C)C)n2)CCCN1c1cnc(C(N)=O)c(Nc2cnn(C)c2)n1", "ATTRIBUTE MEASURED": "IC50", "VALUE": "1 to 10 µM"}
{"SAMPLE SMILES": "C=CC(=O)N1CCC[C@@H](Nc2nnc(C(N)=O)c(Nc3ccc(C4CCN(C(=O)CC)CC4)cc3)n2)C1", "ATTRIBUTE MEASURED": "IC50", "VALUE": "< 0.01 µM"}
{"SAMPLE SMILES": "C[C@@H]1[C@H](NC(=O)c2ccc(C3CC3)cc2)CCCN1c1cnc(C(N)=O)c(Nc2ccc(N3CCN(C)C[C@@H]3C)cc2)n1", "ATTRIBUTE MEASURED": "IC50", "VALUE": "0.1 to 1 µM"}
{"SAMPLE SMILES": "C[C@@H]1[C@H](NC(=O)c2ccc(C(=O)N(C)C)cc2)CCCN1c1cnc(C(N)=O)c(Nc2cnn(C)c2)n1", "ATTRIBUTE MEASURED": "IC50", "VALUE": "0.1 to 1 µM"}

Query molecule follows.
stdin: Indicate its recorded IC50; the molecule in question is C[C@@H]1[C@H](NC(=O)c2cc(C(C)(C)C)nn2C)CCCN1c1cnc(C(N)=O)c(Nc2cnn(C)c2)n1
stdout: 1 to 10 µM
